These entries and their values trace back to PubChem BioAssay (Tox21).

# TESTED SYSTEM: Peroxisome proliferator-activated receptor gamma (Homo sapiens) (UniProt P37231)
# Sequence (P37231 whole entry, looked up): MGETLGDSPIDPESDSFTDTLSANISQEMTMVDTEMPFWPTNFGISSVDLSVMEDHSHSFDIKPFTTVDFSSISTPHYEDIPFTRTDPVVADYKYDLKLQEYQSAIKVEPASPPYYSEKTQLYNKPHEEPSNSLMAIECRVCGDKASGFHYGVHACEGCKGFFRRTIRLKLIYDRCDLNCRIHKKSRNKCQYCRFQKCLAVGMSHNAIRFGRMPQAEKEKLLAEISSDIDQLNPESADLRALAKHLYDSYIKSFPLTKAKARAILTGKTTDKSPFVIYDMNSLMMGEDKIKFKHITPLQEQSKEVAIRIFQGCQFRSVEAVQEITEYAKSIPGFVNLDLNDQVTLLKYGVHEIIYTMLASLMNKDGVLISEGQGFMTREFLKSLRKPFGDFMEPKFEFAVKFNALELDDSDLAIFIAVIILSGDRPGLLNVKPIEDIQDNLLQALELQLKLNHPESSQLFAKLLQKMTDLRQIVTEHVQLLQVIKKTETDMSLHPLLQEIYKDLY
# EXPERIMENTAL DETAILS: qHTS assay to identify small molecule agonists of the peroxisome proliferator-activated receptor gamma (PPARg) signaling pathway (AID 743094); as to activation: % is scaled to controls: 0 for no effect and ±100 for the full control effect
# PARTICULARS: HEK293H PPARg-UAS-bla, beta-lactamase FRET ratio, 17 h; series mostly up to 57 µM
# From the text: U.S. Tox21 Program National Center for Advancing Translational Sciences [NCATS] NIH Chemical Genomics Center [NCGC] U.S. Environmental Protection Agency [EPA] National Institutes of Environmental Health Sciences [NIEHS] National Toxicology Program [NTP] U.S. Food and Drug Administration [FDA] […]
Inconclusive results are not listed. Calls of active or inactive are those of the source. Calls follow the shape of the dose curve; as a rule, active = well fitted activation curve with a large enough effect in the signal ratio in the repeat runs (not every such curve was filed as active); inconclusive = weak or mixed curves, or effect the other way; inactive = no such curve, though single readings can be large or run the other way; the % refers to the signal ratio.
Outcomes: 1 for active, 0 for inactive

| COMPOUND | TESTED SYSTEM | ASSIGNED CLASS |
| --- | --- | --- |
| BrC(Br)Br | Peroxisome proliferator-activated receptor gamma (Homo sapiens) (UniProt P37231) | 0 |
| Clc1ccc(COC(Cn2ccnc2)c2ccc(Cl)cc2Cl)cc1 (stereo unspecified) | Peroxisome proliferator-activated receptor gamma (Homo sapiens) (UniProt P37231) | 0 |
| CCCCCCCCCCCCCN1CC(C)OC(C)C1 (stereo unspecified) | Peroxisome proliferator-activated receptor gamma (Homo sapiens) (UniProt P37231) | 0 |
| CC(C)(C)c1cc([N+](=O)[O-])cc(C(C)(C)C)c1O | Peroxisome proliferator-activated receptor gamma (Homo sapiens) (UniProt P37231) | 0 |
| Fc1cccc(Cl)c1CCl | Peroxisome proliferator-activated receptor gamma (Homo sapiens) (UniProt P37231) | 0 |
| CCC(C)(C)C(=O)OC1=C(c2ccc(Cl)cc2Cl)C(=O)OC12CCCCC2 | Peroxisome proliferator-activated receptor gamma (Homo sapiens) (UniProt P37231) | 1 |
| CC(C)Oc1cccc(NC(=O)c2ccccc2C(F)(F)F)c1 | Peroxisome proliferator-activated receptor gamma (Homo sapiens) (UniProt P37231) | 0 |
| ClC1=C(Cl)[C@]2(Cl)[C@@H]3[C@@H]4C[C@@H]([C@H]5O[C@@H]45)[C@@H]3[C@@]1(Cl)C2(Cl)Cl | Peroxisome proliferator-activated receptor gamma (Homo sapiens) (UniProt P37231) | 0 |
| CCN(CC)c1c([N+](=O)[O-])cc(C(F)(F)F)c(N)c1[N+](=O)[O-] | Peroxisome proliferator-activated receptor gamma (Homo sapiens) (UniProt P37231) | 0 |
| N#CNC#N | Peroxisome proliferator-activated receptor gamma (Homo sapiens) (UniProt P37231) | 0 |
| Clc1ccc(CSC(Cn2ccnc2)c2ccc(Cl)cc2Cl)cc1 (stereo unspecified) | Peroxisome proliferator-activated receptor gamma (Homo sapiens) (UniProt P37231) | 0 |

* * *

# EXPERIMENTAL DETAILS: qHTS assay to identify small molecule antagonists of the estrogen receptor alpha (ER-alpha) signaling pathway - cell viability counter screen (AID 743074);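 also: HEK293 cells carrying ER-alpha-UAS-bla reporter stimulated with 17beta-estradiol; nearly all actives have a fitted effect of over 45% in size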
# PARTICULARS: ERalpha-bla HEK293 viability, CellTiter-Glo luminescence, 18 h; series mostly up to 69.4 µM
Inconclusive results are not listed. Activity calls are given as the source filed them. The call rests on the fitted dose curve.
Outcomes: 1.0 = active, 0.0 = inactive

| COMPOUND | ASSIGNED CLASS |
| --- | --- |
| CC1(c2ccc(Oc3ccccc3)cc2)OC(=O)N(Nc2ccccc2)C1=O (centres undefined) | 0.0 |
| CC(C)(O)c1cnn2c(-c3ccc(F)c(-c4c(F)cccc4C#N)c3)cnc2n1 | 0.0 |
| BrCBr | 0.0 |
| CC(=O)O[C@H]1CC[C@@]2(C)C(=CC[C@@H]3[C@@H]2CC[C@]2(C)C(=O)CC[C@@H]32)C1 | 0.0 |
| CC(C)CC(C)(c1ccc(O)cc1)c1ccc(O)cc1 | 1.0 |
| c1ccc2c(c1)OCC(C1=NCCN1)O2 (centres undefined) | 0.0 |
| C[C@@H]1O[C@@H](O[C@H]2C[C@@H](O)[C@]3(CO)[C@H]4[C@H](O)C[C@]5(C)[C@@H](C6=CC(=O)OC6)CC[C@]5(O)[C@@H]4CC[C@]3(O)C2)[C@H](O)[C@H](O)[C@H]1O | 1.0 |
| N#CC(Cl)Cl | 0.0 |
| Cc1cc(C)c(C2=C(OC(=O)CC(C)(C)C)C3(CCCC3)OC2=O)c(C)c1 | 0.0 |
| C[C@]12CC[C@H]3[C@@H](CCC4=CC(=O)CC[C@@]43C)[C@@H]1CC[C@@H]2O | 0.0 |
| O=C(NC(=O)c1c(F)cccc1F)Nc1cc(Cl)c(OC(F)(F)C(F)F)c(Cl)c1 | 0.0 |
| Clc1ccc(CCC(Cn2ccnc2)Sc2c(Cl)cccc2Cl)cc1 (centres undefined) | 0.0 |
| CC1(C)CN=C(NN=C(/C=C/c2ccc(C(F)(F)F)cc2)/C=C/c2ccc(C(F)(F)F)cc2)NC1 | 1.0 |
| CNC(C)Cc1ccc2c(c1)OCO2 (centres undefined) | 0.0 |
| c1ccc2c(c1)[nH]c1cnccc12 | 0.0 |
| Nc1ccccc1C(=O)Oc1ccc2ccccc2c1 | 0.0 |
| N#CCCC(Br)(C#N)CBr (centres undefined) | 0.0 |
| [CH3][Hg][Cl] | 0.0 |
| CC(=O)OC1(c2ccccc2)CCN(CCc2ccccc2)CC1 | 0.0 |

* * *

# EXPERIMENTAL DETAILS: qHTS RealTime-Glo MT Cell Viability Assay in HepG2 cells - 32 hour (AID 1224877); also: nearly all actives have a fitted effect of over 55% in size
# PARTICULARS: RealTime-Glo luminescence; series mostly up to 76.8 µM
Inconclusive results are not listed. Activity calls are given as the source filed them. Calls follow the shape of the dose curve; as a rule, active = well fitted cell-killing curve with a large enough effect in the repeat runs; inconclusive = weak or mixed curves; inactive = flat fitted curve, though single readings scatter.
Outcomes: 1 (yes) for active, 0 (no) for inactive

| COMPOUND | ASSIGNED CLASS |
| --- | --- |
| CN(CCCC(=O)c1cccnc1)N=O | 0 (no) |
| CC1(C)C(/C=C(\Cl)C(F)(F)F)C1C(=O)OC(C#N)c1cccc(Oc2ccccc2)c1 (centres undefined) | 0 (no) |
| COP(=O)(OC)SCn1c(=O)oc2cc(Cl)cnc21 | 0 (no) |
| CC(C)(COCC1CO1)COCC1CO1 (centres undefined) | 0 (no) |
| COc1ccc(OC)c(C=O)c1 | 0 (no) |
| CC(C)N1C(=O)N(c2ccccc2)CSC1=NC(C)(C)C | 0 (no) |
| CCOP(=O)(NC(C)C)Oc1ccc(SC)c(C)c1 (centres undefined) | 0 (no) |
| N#Cc1ccccc1Cl | 0 (no) |
| [Hg+2].[I-].[I-] | 1 (yes) |
| Oc1ccccc1Br | 0 (no) |
| CC(C)OS(C)(=O)=O | 0 (no) |
| N#CCCC(Br)(C#N)CBr (centres undefined) | 1 (yes) |
| C=CC(=O)OCCCCOC(=O)C=C | 1 (yes) |
| COS(=O)(=O)c1ccc(C)cc1 | 0 (no) |
| Oc1ccc(I)cc1 | 0 (no) |
| CN(C)S(=O)(=O)N(SC(F)(Cl)Cl)c1ccccc1 | 1 (yes) |
| CC(C)(C)C(O)C(Oc1ccc(-c2ccccc2)cc1)n1cncn1 (centres undefined) | 0 (no) |
| O=c1[nH]c2ccccc2n1CCCN1CCC(n2c(=O)[nH]c3cc(Cl)ccc32)CC1 | 0 (no) |
| O=C1NCN(c2ccccc2)C12CCN(CC1COc3ccccc3O1)CC2 (centres undefined) | 0 (no) |
| Clc1ccc(-c2ccc(Cl)c(Cl)c2Cl)c(Cl)c1Cl | 0 (no) |
| CC(=O)O[C@H]1CC[C@@]2(C)C(=CC[C@@H]3[C@@H]2CC[C@]2(C)C(=O)CC[C@@H]32)C1 | 0 (no) |
| Clc1ccc(C(c2ccccc2Cl)C(Cl)(Cl)Cl)cc1 (centres undefined) | 0 (no) |
| FC(Cl)(Cl)Cl | 0 (no) |
| Cc1cc(C)c(C2=C(OC(=O)CC(C)(C)C)C3(CCCC3)OC2=O)c(C)c1 | 0 (no) |
| CCOP(=S)(OCC)SCS(=O)(=O)C(C)(C)C | 0 (no) |
| Oc1c(Cl)c(Cl)cc(Cl)c1Cl | 0 (no) |
| CCOP(=S)(OCC)OC(Cl)C(Cl)(Cl)Cl (centres undefined) | 0 (no) |
| CC(C)CC(C)N (centres undefined) | 0 (no) |
| CS(=O)(=O)c1ccc(C(=O)C2C(=O)CCCC2=O)c([N+](=O)[O-])c1 | 0 (no) |

* * *

# EXPERIMENTAL DETAILS: qHTS assay to identify small molecule antagonists of the peroxisome proliferator-activated receptor gamma (PPARg) signaling pathway - cell viability counter screen (AID 743194); also: nearly all actives have a fitted effect of over 55% in size
# PARTICULARS: PPARg-bla HEK293H viability, CellTiter-Glo luminescence, 17 h; co-treated with 50 nM rosiglitazone unless noted; series mostly up to 62.6 µM
Inconclusive results are not listed. Activity calls are given as the source filed them. The call rests on the fitted dose curve; in most records, active means well fitted cell-killing curve with a large enough effect in the repeat runs; inconclusive means weak or mixed curves, or effect the other way; inactive means no such curve, though single readings can be large or run the other way.
Outcomes: yes (1) for active, no (0) for inactive

| MOLECULE | ASSIGNED CLASS |
| --- | --- |
| N#CCCSCCC#N | no (0) |
| OC(c1ccc(Cl)cc1)(c1ccc(Cl)cc1)C(Cl)(Cl)Cl | yes (1) |
| C1CCC2CCCCC2C1 (stereo unspecified) | no (0) |
| c1ccc(Nc2ccc3ccccc3c2)cc1 | no (0) |
| O=c1oc2ccccc2c(O)c1Cc1c(O)c2ccccc2oc1=O | no (0) |
| C[C@@H]1O[C@@H](O[C@@H]2C=C3CC[C@@H]4[C@H](CC[C@]5(C)[C@@H](c6ccc(=O)oc6)CC[C@]45O)[C@@]3(C)CC2)[C@H](O)[C@H](O)[C@H]1O | yes (1) |
| Cn1cc(C2=C(c3cn(C4CCN(Cc5ccccn5)CC4)c4ccccc34)C(=O)NC2=O)c2ccccc21 | no (0) |
| BrC(Br)Br | no (0) |
| O=c1[nH]c2ccccc2n1C1CCN(CCCC(c2ccc(F)cc2)c2ccc(F)cc2)CC1 | yes (1) |
| Oc1ccc(C2(c3ccc(O)cc3)CCCCC2)cc1 | yes (1) |
| CCCOCC(=Nc1ccc(Cl)cc1C(F)(F)F)n1ccnc1 | yes (1) |
| c1ccc2c(c1)OCC(C1=NCCN1)O2 (stereo unspecified) | no (0) |
| CCCCCCCCCCCCCCC(Br)C(=O)O (stereo unspecified) | yes (1) |
| CC(c1ccc(O)cc1)c1ccc(O)cc1 | no (0) |
| FC(F)(F)c1cccc(C2=CCN(CCc3ccc4ccccc4c3)CC2)c1 | no (0) |
| CCCCCCCCCCCCCN1CC(C)OC(C)C1 (stereo unspecified) | no (0) |
